tested on: Lolium perenne (LOLPE); assay: Test 1 glasshouse herbicide test, post-emergence application (Table B1); type: in vivo; conditions: 250 g/ha unless otherwise stated, evaluated after 13 days, five-point scale
Would you kindly list % phytotoxicity LOLPE, post-emergence application for each of these compounds?

O=S(=O)(CCCC(F)(F)F)c1c(Cl)cccc1Oc1ncc(Cl)cn1 [Compound A24] : 5 (5=81 to 100%)

Quick one: give me % phytotoxicity LOLPE, post-emergence application for each item below, same order please.
1. N#Cc1cccc(Oc2ncc(Cl)cn2)c1S(=O)(=O)CCC(F)(F)F [Compound A15]
2. FC(F)(F)CCCSc1ccccc1Oc1ncc(Cl)cn1 [Compound A4]
3. N#Cc1cccc(Oc2ncc(Cl)cn2)c1[S+]([O-])CCCC(F)(F)F (centres unmarked) [Compound A29]
4. FC(F)(F)CCSc1ccccc1Oc1ncc(Cl)cn1 [Al]

1: 4 (4=61 to 80%); 2: 4 (4=61 to 80%); 3: 5 (5=81 to 100%); 4: 4 (4=61 to 80%)

====

tested on: Lolium perenne (LOLPE); test: Test 1 glasshouse herbicide test, post-emergence application (Table B1); type: in vivo; details: 250 g/ha unless otherwise stated, evaluated after 13 days, five-point scale
For each entry below, report its % phytotoxicity LOLPE, post-emergence application value.

Example cases with answers are listed next.
[O-][S+](CCCC(F)(F)F)c1c(Cl)cccc1Oc1ncc(Cl)cn1 (stereo not shown) : 5 (5=81 to 100%)
[O-][S+](CCC(F)(F)F)c1ccccc1Oc1ncc(Cl)cn1 (stereo not shown) : 4 (4=61 to 80%)
O=S(=O)(CCCC(F)(F)F)c1ccccc1Oc1ncc(Cl)cn1 : 2 (2=21 to 40%)
[O-][S+](CCC(F)(F)F)c1c(Cl)cccc1Oc1ncc(Cl)cn1 (stereo not shown) : 4 (4=61 to 80%)
N#Cc1cccc(Oc2ncc(Cl)cn2)c1SCCC(F)(F)F : 5 (5=81 to 100%)
N#Cc1cccc(Oc2ncc(Cl)cn2)c1[S+]([O-])CCC(F)(F)F (stereo not shown) : 4 (4=61 to 80%)

Proceeding to the next compound to report its % phytotoxicity LOLPE, post-emergence application.
# compound [O-][S+](CCCC(F)(F)F)c1ccccc1Oc1ncc(Cl)cn1 (stereo not shown) ; its % phytotoxicity LOLPE, post-emergence application = 5 (5=81 to 100%)
